- Measurement Notes: Cumulative radioactivity exerted by compound in the urine at 24 hour postinjection of [131 I ]L-HML-NGA and compound
- Assay type: ADME, organism-based
- Stated Conditions: in vivo
We begin with a simple list: items and their reported Radioactivity.
Hi, when you answer, please include the unit after the number. Thanks!

Solved entries:
1) N=C(CCCSC1CC(=O)N(CCCC[C@H](NC(=O)CNC(=O)c2cccc([125I])c2)C(=O)O)C1=O)NC(=O)[C@@H](N)CCCCN (stereo partly drawn) = 78.26%
2) N[C@@H](CS)C(=O)SC1CC(=O)N(CCCC[C@@H](NC(=O)CNC(=O)c2cccc([125I])c2)C(=O)O)C1=O (stereo partly drawn) = 39.1%

Task: Returns the measured Radioactivity for the input compound. Input: N[C@@H](CS)C(=O)SC1CC(=O)N(CCCCCNC(=O)CNC(=O)c2cccc([125I])c2)C1=O (stereo partly drawn)
Output: 25.5%
